B1: POU domain, class 2, transcription factor 1, residues 285 to 354; numbered along this chain, P14859 (parent)
chain: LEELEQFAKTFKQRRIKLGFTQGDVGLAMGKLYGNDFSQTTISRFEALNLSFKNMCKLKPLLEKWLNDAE

variants of: B1; assay: abundance fitness (aPCA) (normalised: wild type 0, dead -1); higher = more abundant; growth selection in yeast, the domain comes from the species named; conditions: Homo sapiens
OBSERVABLE: abundance fitness

>>> df
                                biosequence  observed_measurement
0  LEELEQFAKTFKQRRIKLGFTQGDVGLAMGKLYGNDFSQTFISRFEALNLSFKNMCKLKPLLEKWLNDAE [T41F]                  -0.1
1  LEELEQFAKTFKQRRIKLGFTQGDVGLAMGKLYGNDFSQTTISRFEALSLSFKNMCKLKPLLEKWLNDAE [N49S]                -0.004
2  LEELEQFAKTFKQRRIKLGFTQGDVGLAMGKLYGADFSQTTISRFEALNLSFKNMCKLKPLLEKWLNDAE [N35A]                -0.011

In: Which abundance fitness is reported for this variant? LEELEQFAKTFKQRRIKDGFTQGDVGLAMGKLYGNDFSQTTISRFEALNLSFKNMCKLKPLLEKWLNDAE [L18D]
Out: -0.601

In: What about this variant? LEELEQFAKTFKQRRIKLGFTQGDVGLAMGKLYGRDFSQTTISRFEALNLSFKNMCKLKPLLEKWLNDAE [N35R]
Out: 0.008

All values here come from the Human Domainome abundance scans (Beltran et al. 2025).
